# protocol-summary: amyloid nucleation score (Sup35N fusion, yeast selection) (log enrichment); library NNK1; higher = more nucleation; inactive = no reads after selection;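 further: zero at mode of non-aggregating sequences after 7 days selection at 30°C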
Everything with amyloid nucleation score lower than 0.5 is FALSE; everything else, including exactly 0.5, is TRUE.

> print(dat)
       sequence.content  group
1  LHHRSLFDCESNTAGSPRFV  FALSE
2         GIYSFGLCVGDIS  FALSE
3  CFRDGYSKLCGCYVSMRTGH  FALSE
4            YGFLNPTSSR   TRUE
5  RIYTTWGHYDNDHQIYLFRG  FALSE
6  HQLAFYRFCIASSCSWAYLS   TRUE
7  LLQMWMEWRVFYYHLFVSAS  FALSE

====

# protocol-summary: amyloid nucleation score (Sup35N fusion, yeast selection) (log enrichment); library NNK1; higher = more nucleation; inactive = no reads after selection
Category scheme (amyloid nucleation score): low = under -0.2, intermediate = from -0.2 up to 0.8, high = 0.8 and over

> print(dat)
        sequence.content         group
 1      ISNDYGATMFNLGCYI          high
 2  TGDDSYDVLLVGLVKTSGVY           low
 3  LYIFLNEDDRFSMKQGVKGG  intermediate
 4  WKFALSLTRSDWAGHGPGHE          high
 5    TISGLFLSRLYSKTMGGC          high
 6            LIVNRSKFLT  intermediate
 7  FICERPGSRKTTLPTVTVIR           low
 8             INSAHYELN           low
 9  AFMGPWEPFLVHFTRRPSPY           low
10  AFPSVRSAFSYLVVPCTICT  intermediate
11  VTLGHHDRSCFYEDSVQTRD          high
12  VQGYTYGGCDGFMEWLGKLI           low
13      DDFTLCKPGLVYMMSG  intermediate
14            KANACGRFTN          high

====

# protocol-summary: amyloid nucleation score (Sup35N fusion, yeast selection) (log enrichment); library NNK2; higher = more nucleation; inactive = no reads after selection
# amyloid nucleation score values compiled below
measurement-type: amyloid nucleation score

> print(dat)
               substance  measured.result
 1    SFVLIKIMILLCDAVYGH             3.58
 2  LVSVVNMVADSSRKSSQGEL             4.88
 3  LLFIICTDSFRLPTANGELY            -1.17
 4               ILAVRQV            0.054
 5  SAFIVNCNLINAQERDFKSD             6.68
 6  FRYRKSLDCNAMVPERQTGT             1.11
 7  VISKVSLDVCRCIRFLHYDS             7.69
 8             LHAGPDKSA            0.068
 9         MNPYLVGPFERVV            0.061
10            CVMLMCRGDV             3.87
11           YHCVEYLGARL            0.083
12            VYIAAHTCIC             4.93
13          LGSLDPKRHLYI           -0.784
14            VCVLKGDGGL            0.339
15  LGLTSHTVPKCRCVGLMLMV            0.438
16  FSTHDIGSRKWARQYLYVVH            0.334
17                EFRNLT           -0.213
18  EGLRVEMCYGKNVSFMIGSY             5.73
19          KMMLSTRSQYPS            0.489
20  FFFDDSKVYQNWEEDVEGNQ           -0.389
21               VDAVLND            0.432
22  TDAGNKGNTTCNRRSACLFY            0.669
23  SYEAGMHVNKGYLQVMCVDG           -0.086
24            VYYLVSLGLT             1.91
25               LQMPVVF           -0.577
26  GDFVGMLYNRCGHHMVIILT           -0.731
27  YKSSGLLSYTSIGNVDIYFV             6.26
28           THLKYTFWIFV             2.62
29  CSGSLHERQYVRYDEVRRVG           -0.031
30  TGNVTGRLFWNVFVRYSGVL            -0.03
31     QTRTQEFFRSFNKVFTQ             2.59
32              LTEDTMFG           -0.573
33  LNHGNMEYWLSMDVINLSQI            0.238
34  MIMLDAEGLYIIPRGVSKFL             1.87
35  WLLKFSVGLNFFSEFNVLRC            -1.43
36  SVDHLDSVFDYFHVRYKFIS            -1.09
37  RLNVISIQNAIMRVVRTKRF             3.61
38  LRKIYFWWAATNALLEMRGW            0.057
39             GFRFSVIGI           -0.101
40  RIHFGFRMMMCRDIRIFTSQ             6.06
41               TAKSVVA           -0.703
42  SSYGIFVVGMLGSCRVQSRF             3.79
43  YTSGSTGRDLLPNMKRGSVV             4.36
44    KVAFKIALKSSTIWFIDS             2.47
45  RYDSMIHRSVGWPGSYNKGH           -0.287
46  LHIRVLSQVRLCDDWRASAS           -0.016
47  FRLTIDNFDVNGLLSEMAYG           -0.293
48  EFMYKQCRYIVTPYGLVVSR           -0.557
49  FLIRDLAMHSSCSGSAIMIT           -0.713
50  CFVYLDLLYMEMMYHRQVAY           -0.552
51  WWDTRRHVQCCSAEAIDFME              1.3
52         FPGLDGNQMFRLC             0.42
53          RYRELVGVKCMV            0.978
54  TYLDGAYLLFDSARFAKAVK            0.144
55      SISHQRMWKGCADEII           -0.242
56  NCFSSRGGARTFGIKLIFSV            0.524
57    IFIRLFVLANYCINLFSS             3.28
58  LFCSRQSTWPRDKGVFPWTI           -0.916
59  NMFLFLCVRVCGVAFDKGKV             2.28
60              RLDRVIFY             1.85
61  TRDSLGRKGYRSAVLTPSMP             1.29
62      YILAFVILAMEAWHRV             3.68
63          STQYPTMVERLS             1.75
64  LFVIWNTCVNYFLDVLSGHN             3.86
65  QWVDQVYIAETIVPLSNKVV           -0.398
66              SNFVQSGG            0.138

The measured values listed here are drawn from the supplement of paper PMC12042874.
